tgt: recombinant hSSAO (Homo sapiens (Human))
assay_notes: SSAO Activity Assay (MAO-Glo assay kit)
test_settings: 40 μM substrate, 30 mins pre-incubation
pIC50: −log10 of the molar value.
measure: pIC50

Some solved cases for reference:
structure_smiles: NC/C(=C\F)COc1ccc(S(=O)(=O)CN2CCOCC2=O)c(F)c1
measure: pIC50
endpoint_value: 7.00 to 7.70
--
structure_smiles: NC/C(=C\F)COc1ccc(S(=O)(=O)CC2CCN(C(=O)C3CC3)CC2)cc1
measure: pIC50
endpoint_value: 7.00 to 7.70
--
structure_smiles: CC1(C)CCC(=O)N1CS(=O)(=O)c1ccc(OC/C(=C/F)CN)cc1
measure: pIC50
endpoint_value: 7.00 to 7.70

Using the record for CS(=O)(=O)N1CCC(CS(=O)(=O)c2ccc(OC/C(=C/F)CN)cc2)CC1 , report its pIC50. > 7.70

Then what about the compound NC/C(=C\F)COc1ccc(S(=O)(=O)CN2CCCCC2=O)cc1 ? 7.00 to 7.70

Then what about the compound CC1(CS(=O)(=O)c2ccc(OC/C(=C/F)CN)cc2)CCN(C(=O)C(C)(C)C)CC1 ? 7.00 to 7.70

Then what about the compound NC/C(=C\F)COc1ccc(S(=O)(=O)CC23CCC(O)(CC2)CC3)cc1 ? 7.00 to 7.70

Then what about the compound N#CC1(COCS(=O)(=O)c2ccc(OC/C(=C/F)CN)cc2)CCOCC1 ? 7.00 to 7.70

###

Property: pIC50; scope: individual compounds
tgt: recombinant hSSAO (Homo sapiens (Human), UniProt Q16853)
Sequence (Q16853 whole entry): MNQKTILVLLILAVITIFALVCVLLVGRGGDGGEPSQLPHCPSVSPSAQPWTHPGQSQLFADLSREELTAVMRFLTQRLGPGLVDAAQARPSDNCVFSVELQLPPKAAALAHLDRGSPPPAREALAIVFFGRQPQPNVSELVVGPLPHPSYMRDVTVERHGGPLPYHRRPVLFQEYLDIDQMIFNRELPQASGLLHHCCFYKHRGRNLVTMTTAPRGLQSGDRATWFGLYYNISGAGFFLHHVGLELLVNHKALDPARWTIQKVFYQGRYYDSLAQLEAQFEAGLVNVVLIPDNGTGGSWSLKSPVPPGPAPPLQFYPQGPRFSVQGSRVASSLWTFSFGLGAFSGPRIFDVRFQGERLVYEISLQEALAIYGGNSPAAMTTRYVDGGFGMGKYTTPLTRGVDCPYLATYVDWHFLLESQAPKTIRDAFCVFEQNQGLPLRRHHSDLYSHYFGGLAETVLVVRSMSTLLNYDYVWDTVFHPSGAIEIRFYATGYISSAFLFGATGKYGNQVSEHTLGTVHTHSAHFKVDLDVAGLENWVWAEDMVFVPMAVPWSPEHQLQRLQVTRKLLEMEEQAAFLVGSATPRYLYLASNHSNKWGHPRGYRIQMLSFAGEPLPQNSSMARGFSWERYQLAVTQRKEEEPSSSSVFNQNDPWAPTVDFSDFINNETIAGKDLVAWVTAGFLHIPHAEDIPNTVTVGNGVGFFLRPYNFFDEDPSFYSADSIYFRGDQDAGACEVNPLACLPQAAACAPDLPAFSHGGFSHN
assay_notes: SSAO Activity Assay (MAO-Glo assay kit)
test_settings: 40 μM substrate, 30 mins pre-incubation
pIC50: −log10 of the molar value.

Some solved cases for reference:
structure_smiles: CC1(CS(=O)(=O)c2ccc(OC/C(=C/F)CN)cc2)CCN(C(=O)C2(C(F)(F)F)CC2)CC1
endpoint_value: 7.00 to 7.70
--
structure_smiles: N#CC1(CS(=O)(=O)c2ccc(OC/C(=C/F)CN)cc2F)CCOCC1
endpoint_value: 7.00 to 7.70

Could you now look at the following compound, please?
Using the record for CC(C)C(=O)N1CCC(CS(=O)(=O)c2ccc(OC/C(=C/F)CN)cc2)CC1 , report its pIC50. > 7.70

Source: patent US11472769B2
